Data origin, for the record: the supplement of paper PMC10567573

B1: NP_009172.2 (parent)
chain: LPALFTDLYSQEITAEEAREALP

Variants of: B1
method: protein stability index of a GFP-peptide fusion (GPS, HEK-293T) (PSI 1-6); higher = more stable;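 further: lentivirally expressed fusion library, cells FACS-sorted into six equal-sized GFP/DsRed ratio bins, PSI computed from sequencing read fractions per bin weighted by bin number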
run conditions: c terminus: native
For each entry below, report its protein stability index value.
Give bare numbers.

Use the examples below as a reference point.
INSERT INTO results (mutation_annotation, recorded_number) VALUES
  ('E17D', 2.71),
  ('A15R', 2.36);

Here are 4 variants. What values of protein stability index were reported for them?
1. A21I
2. R19D
3. A3V
4. R19G

1. 2.4
2. 3
3. 2.49
4. 2.96

Below is a list of variants. For each, state its recorded protein stability index.
1. S10P
2. L1F
3. A18L
4. F5V

[3.79, 2.59, 2.51, 5.07]

Count: 2. Required value per item: protein stability index.
1. L4K
2. T14D

1. 2.77
2. 2.55
